- EXPERIMENTAL_PROTOCOL: Cmax in Sprague-Dawley rat at 1 mg/kg, iv by LC-MS/MS analysis
- Assay type: ADME, organism-based
- TEST_CONDITIONS: in vivo
VALUE_KIND: Cmax (µg/mL)
Only the number, expressed in µg/mL, is required.

Query :: Entry under review: COc1ccc(Cl)cc1-c1cc(C)ncc1C(=O)Nc1nnc(OCC2CCN(C(=O)c3cc(Cc4n[nH]c(=O)c5ccccc45)ccc3F)CC2)s1 . Reported Cmax?
Result :: 1.95

----------
- EXPERIMENTAL_PROTOCOL: Metabolic stability in mouse liver microsome assessed as intrinsic clearance
- Assay type: ADME
- TEST_CONDITIONS: liver microsomes, read-out: CLH
VALUE_KIND: CLint scaled (mL/min/kg)
Only the number, expressed in mL/min/kg, is required.

Query :: Entry under review: COc1ccc(Cl)cc1-c1cc(C)ncc1C(=O)Nc1nnc(OCC2CCN(C(=O)c3cc(Cc4n[nH]c(=O)c5ccccc45)ccc3F)CC2)s1 . Reported CLint scaled?
Result :: 1070

Values from ChEMBL document CHEMBL5518204
